tested on: MDA-MB-231 cells; test: MTT cell viability assay, MDA-MB-231; format: cell-based, human; conditions: read-out: IC50 ± SD, MDA-MB-231, 48 h, normoxia (∼15% O2)
measurement kind: pIC50
Keep in mind that pIC50 stands for -log10 of concentration in molar terms.

Req: Can you share its pIC50? I mean this molecule: [NH2][Pt]([NH2])([Cl])[Cl] [CDDP, cisplatin, reference compound]
Resp: 4.43

###

system: Hep G2 cells; assay: MTT cell viability assay, Hep G2; type: cell-based, human; details: read-out: IC50 ± SD, Hep G2, 48 h, normoxia (∼15% O2)
measurement kind: IC50 (µM)
Give the number; µM is assumed, so skip it.

Req: Can you share its IC50? I mean this compound: [NH2][Pt]([NH2])([Cl])[Cl] [CDDP, cisplatin, reference compound]
Resp: 14.3
